Just for reference, paper PMC3779320 is where these values come from.

- Measured On: T1, Bub1^289–359–Bub3^R239A complex (S. cerevisiae, UniProt P41695 289-359; P26449 1-341, R239A)
- T1 construct: Bub3, S. cerevisiae, full length, with R239A; also called R239A mutant; source: expressed and purified essentially like the wild type complex (E. coli, GSH-sepharose, PreScission cleavage, SEC)
- T1 sequence (looked up) 1: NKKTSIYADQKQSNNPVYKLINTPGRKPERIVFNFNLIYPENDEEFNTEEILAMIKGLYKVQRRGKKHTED
- T1 sequence (looked up) 2: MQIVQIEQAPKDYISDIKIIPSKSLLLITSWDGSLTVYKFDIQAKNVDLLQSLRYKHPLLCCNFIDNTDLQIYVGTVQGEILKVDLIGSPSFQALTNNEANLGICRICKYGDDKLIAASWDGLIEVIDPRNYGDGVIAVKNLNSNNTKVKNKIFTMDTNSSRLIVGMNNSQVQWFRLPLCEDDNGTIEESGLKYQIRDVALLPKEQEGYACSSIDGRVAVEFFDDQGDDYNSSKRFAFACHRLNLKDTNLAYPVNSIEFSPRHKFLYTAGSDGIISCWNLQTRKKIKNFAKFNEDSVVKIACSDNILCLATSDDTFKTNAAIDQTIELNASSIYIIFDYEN
- Assay Notes: ITC; 25°C, MicroCal ITC200; 20 mM Tris pH7.5, 150 mM NaCl, 1 mM DTE; Bub1^289–359–Bub3 in the cell at 30 µM, titrated with thirty-five 2-µl injections of peptide at 400 µM; single-site binding model
- Assay Conditions: both partners purified
Square brackets hold non-standard residues; d marks the D form. Ends that are not written are not given here. pT = C[C@@H](OP(=O)(O)O)[C@H](N)C(=O)O
Endpoint Label: Kd (µM)
All answers are understood in µM, so give the number only.

Query block: Request the reported Kd associated with DPTSMEM[pT]EVFPRSIRQKN (Spc105/Knl1, S. cerevisiae, second MELT repeat with four residues before and eleven after; Met169, Glu170, Met171, P-Thr172, Phe175 are the printed numbers; The end groups are told only for the peptide used for crystallisation; also called MELT^P peptide; Spc105/Knl1 phosphopeptide; source: synthetic peptide, custom made by GeneScript (95% purity)) [MELT2^P peptide (phosphorylated second MELT repeat of Spc105/Knl1)]
Result block: 5
